Target: T1, PUF4 RNA-binding domain (Saccharomyces cerevisiae, UniProt P25339 537-888)
T1 sequence: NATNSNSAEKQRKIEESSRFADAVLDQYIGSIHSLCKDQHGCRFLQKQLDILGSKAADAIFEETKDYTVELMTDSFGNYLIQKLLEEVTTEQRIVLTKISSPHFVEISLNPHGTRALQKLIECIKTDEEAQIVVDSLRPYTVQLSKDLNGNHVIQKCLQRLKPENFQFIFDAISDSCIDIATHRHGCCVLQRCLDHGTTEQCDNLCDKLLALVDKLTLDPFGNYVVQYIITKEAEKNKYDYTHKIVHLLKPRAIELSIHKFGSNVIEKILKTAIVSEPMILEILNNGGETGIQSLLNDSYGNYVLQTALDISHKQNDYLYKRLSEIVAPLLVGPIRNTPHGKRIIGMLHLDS
Assay: Mg; RNA-MaP; 20 mM Na-HEPES pH 7.4, 30 mM KOAc, 0.75 mM MgCl2, 0.1% Tween-20, 5% glycerol, 0.1 mg/mL BSA, 2 mM DTT; 25 C; 0.0125-409.6 nM protein
Settings: tags: N-His6-TEV cleaved; C-SNAP kept, Cy3B-labelled; label: tethered on chip by stalled RNA polymerase
pKd: −log10 of the molar value.
Examples of binders with documented pKd follow.
QUANTITY_MEASURED: pKd

{"BINDER": "Ie_S4_P4E.1_K4.1_C4.1_H4.1_[+3CT]_A4.1_F4.1_T4.1 (ssRNA) RNA: UUUGACAACUGAUCGUUCUUUCUUGUCUAUAUUAUUCUUUCUCGAUCAGUUGUCUUU", "QUALIFIER_SYMBOL": "=", "RECORDED_MEASUREMENT": 7.51}
{"BINDER": "ACAAACAGUACAUAACAAAC (ssRNA) [Ib_S3_P3E.1_K3.1_C3.1_H3.1_[T1A]_A3.1_[T5C]_F3.1_T3.1]", "QUALIFIER_SYMBOL": "<", "RECORDED_MEASUREMENT": 5.64}
{"BINDER": "ACAAACAUACACUAUUAAUACAAAC (ssRNA) [Id_ii_S3_P4E.4_K4.3_C4.2_[C-2A]_H4.3_A4.1_F4.1_T4.2_[G10A]]", "QUALIFIER_SYMBOL": "=", "RECORDED_MEASUREMENT": 6.13}
